Literature log10 Ki values, system: D(2) dopamine receptor (Homo sapiens).
Hey, these are logged values: log10 of Ki, nM being the unit before logging.

For this molecule ( O[C@@H](CCCN1CCN(c2ncc(F)cn2)CC1)c1ccc(F)cc1 ), measured log10 Ki is 3.53

For this molecule ( COc1ccccc1C(=O)CCCCCN1CCN(c2noc3ccccc23)CC1 ), measured log10 Ki is 1.89

For this molecule ( O=C1CCc2ccccc2N1CCCN1CCC(n2c(=O)[nH]c3ccccc32)CC1 ), measured log10 Ki is 0.98

For this molecule ( Fc1ccc2c(C3CCN(CCCOc4ccc(CCN5CCOCC5)cc4)CC3)noc2c1 ), measured log10 Ki is 1.02

For this molecule ( CCCCCCn1cc(CN2CCC(O)(c3ccc(Cl)cc3)CC2)c2ccccc21 ), measured log10 Ki is 2.27

---

Literature Ki values, system: UniProtKB P14416.
Numbers only; they are read as nM.

For this compound ( CNCC1Cc2ccc3c(ccn3S(=O)(=O)c3cccc4ccccc34)c21 (stereo not given) ), measured Ki is 1000

For this compound ( CN1C(=O)c2ccccc2[S@+]([O-])c2ccc(C(=O)NCc3ccc(Br)cc3)cc21 ), measured Ki is 240

For this compound ( CN1CCc2ccc(Cc3ccc(O)c4ccccc34)c3c2[C@H]1Cc1ccc(O)c(O)c1-3 ), measured Ki is 170

For this compound ( COc1ccccc1N1CCN(CNC(=O)c2ccc(Cl)cc2)CC1 ), measured Ki is 269

For this compound ( O=S(=O)(NCCCCN1CCN(c2cccc(Cl)c2Cl)CC1)c1cc2ccccc2cn1 ), measured Ki is 17

---

Literature log10 of Ki values, system: D(2) dopamine receptor (Homo sapiens, UniProt P14416).
Sequence (P14416 whole entry): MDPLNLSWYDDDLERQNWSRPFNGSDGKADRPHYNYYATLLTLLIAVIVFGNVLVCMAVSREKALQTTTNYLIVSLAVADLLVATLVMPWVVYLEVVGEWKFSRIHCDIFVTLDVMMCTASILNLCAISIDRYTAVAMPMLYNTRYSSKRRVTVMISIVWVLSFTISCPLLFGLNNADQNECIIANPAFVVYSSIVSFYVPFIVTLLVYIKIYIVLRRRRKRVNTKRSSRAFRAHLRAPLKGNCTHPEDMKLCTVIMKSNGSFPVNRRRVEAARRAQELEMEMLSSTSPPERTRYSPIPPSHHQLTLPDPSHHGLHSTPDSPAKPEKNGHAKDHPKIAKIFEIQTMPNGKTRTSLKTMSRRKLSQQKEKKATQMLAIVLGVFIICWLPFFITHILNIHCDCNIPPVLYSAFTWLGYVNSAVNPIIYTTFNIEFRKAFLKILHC
Hey, these are logged values: log10 of Ki, nM being the unit before logging.

For this molecule ( Oc1ccc2c(c1)CCNCCc1ccccc1C2 ), measured log10 of Ki is 2.59

For this molecule ( O=C(NCCCCN1CCO[C@H]2c3cc(O)ccc3OC[C@@H]21)c1cc2ccccc2[nH]1 (relative stereo) ), measured log10 of Ki is 3.77

For this molecule ( COc1ccccc1N1CCN(C2CC3CC(N4CCN(c5ccccc5OC)CC4)CC3C2)CC1 (stereo not given) ), measured log10 of Ki is 2.80

For this molecule ( CN1CCN(c2nc(N)nc(COc3ccc(Cl)cc3Cl)n2)CC1 ), measured log10 of Ki is 3.09

For this molecule ( CSc1ccccc1C1CC1CNCCCCOc1ccc2ccc(=O)[nH]c2c1 (stereo not given) ), measured log10 of Ki is 1.98

For this molecule ( Cc1cccc(O)c1-c1cccc2c1-c1cccc3c1[C@@H](C2)N(C)CC3 (stereo in doubt; form 2) ), measured log10 of Ki is 3.53

For this molecule ( CN1CCc2ccc(Cc3ccc(O)cc3)c3c2[C@H]1Cc1ccc(O)c(O)c1-3 ), measured log10 of Ki is 1.67

For this molecule ( Fc1ccc2c(C3CCN(CCCOc4ccc(CN5CCCC5)cc4)CC3)noc2c1 ), measured log10 of Ki is 1.09

For this molecule ( O=C(CCc1ccccc1)NC1CCc2ccc(CCN3CCN(c4nsc5ccccc45)CC3)cc21 (stereo not given) ), measured log10 of Ki is 1.52

---

Literature Ki values, system: D(2) dopamine receptor (Homo sapiens, UniProt P14416).
Numbers only; they are read as nM.

Observed Ki, D(2) dopamine receptor (Homo sapiens, UniProt P14416), COc1ccccc1N1CCN(CCN2CCc3ncsc3CC2)CC1 : 151

Observed Ki, D(2) dopamine receptor (Homo sapiens, UniProt P14416), CC(Oc1cc(Cl)cc(Cl)c1)c1nc(N)nc(N2CCN(C)CC2)n1 (racemic) : 157

Observed Ki, D(2) dopamine receptor (Homo sapiens, UniProt P14416), O=S(=O)(NC1CCN(CCOc2ccccc2-c2ccccc2)C1)c1ccc(F)c(F)c1 (stereo not given) : 24

Observed Ki, D(2) dopamine receptor (Homo sapiens, UniProt P14416), O=C1CCc2ccccc2N1CCCN1CCN(c2ccc(Cl)cc2Cl)CC1 : 550

Observed Ki, D(2) dopamine receptor (Homo sapiens, UniProt P14416), COc1ccccc1N1CCN(CCCCCNC(=O)c2sc3nc(OC)c(Cl)c(C)c3c2N)CC1 : 3.5

Observed Ki, D(2) dopamine receptor (Homo sapiens, UniProt P14416), CCc1cc(Cl)c(OC)c(C(=O)NC[C@@H]2CCCN2CCc2c(C)nc3n(c2=O)CCCC3)c1O : 74.4

Observed Ki, D(2) dopamine receptor (Homo sapiens, UniProt P14416), CCCCC(Oc1cccc(Cl)c1Cl)c1nc(N)nc(N2CCN(C)CC2)n1 (racemic) : 506

Observed Ki, D(2) dopamine receptor (Homo sapiens, UniProt P14416), C=CCOC1(c2ccc(Cl)cc2)CCN(Cc2c[nH]c3ccccc23)CC1 : 165

Observed Ki, D(2) dopamine receptor (Homo sapiens, UniProt P14416), CCN(CC)[C@@H]1[C@@H](CO)[C@H]2CN(Cc3ccccc3)[C@H](c3ccccn3)[C@H]21 : 42000

Observed Ki, D(2) dopamine receptor (Homo sapiens, UniProt P14416), CC(C)c1ccccc1N1CCN(CCCCCC(=O)N2CCc3ccccc3C2)CC1 : 1.3

Observed Ki, D(2) dopamine receptor (Homo sapiens, UniProt P14416), CC(C)(C)OC(=O)N[C@H]1CC[C@H](CCN2CCCN(c3cccc(Cl)c3Cl)CC2)CC1 : 10.5

Observed Ki, D(2) dopamine receptor (Homo sapiens, UniProt P14416), Fc1ccc2c(C3CCN(CCCOc4ccc(CN5CCOCC5)cc4Cl)CC3)noc2c1 : 2.5

Observed Ki, D(2) dopamine receptor (Homo sapiens, UniProt P14416), O=S(=O)(NCC1CCN(CCOc2cccc(F)c2)CC1)c1cccc(Cl)c1 : 560

Observed Ki, D(2) dopamine receptor (Homo sapiens, UniProt P14416), O=C1CCc2cnccc2N1CCCN1CCC(n2c(=O)[nH]c3ccccc32)CC1 : 1100

Observed Ki, D(2) dopamine receptor (Homo sapiens, UniProt P14416), CCCN[C@@H]1Cc2cccc3c2n(c(=O)n3CCCCCCOCCCCc2ccccc2)C1 : 54.8

Observed Ki, D(2) dopamine receptor (Homo sapiens, UniProt P14416), COc1ccc2[nH]c3c(c2c1)CCN(C)CCc1ccccc1C3 : 11.9

Observed Ki, D(2) dopamine receptor (Homo sapiens, UniProt P14416), Cc1cccc(N2CCN(CCCCNC(=O)[C@H]3CCc4ccccc4N3)CC2)c1 : 3410

Observed Ki, D(2) dopamine receptor (Homo sapiens, UniProt P14416), COc1ccccc1N1CCN(CC(O)CN2C(=O)NC(C)(c3ccc4ccccc4c3)C2=O)CC1 (stereo not given) : 153

Observed Ki, D(2) dopamine receptor (Homo sapiens, UniProt P14416), c1ccc(CN2CCC(n3nccc3-c3ccccc3)CC2)cc1 : 510

Observed Ki, D(2) dopamine receptor (Homo sapiens, UniProt P14416), CC1(C)NC(=O)N(CC(O)CN2CCN(c3ccccc3C#N)CC2)C1=O (stereo not given) : 3430

Observed Ki, D(2) dopamine receptor (Homo sapiens, UniProt P14416), O=C1COc2ccccc2N1CCCN1CCN(c2nsc3ccccc23)CC1 : 17.7

Observed Ki, D(2) dopamine receptor (Homo sapiens, UniProt P14416), Cc1c(-c2ccccc2)nnn1C1CCN(Cc2ccccc2)CC1 : 1600

Observed Ki, D(2) dopamine receptor (Homo sapiens, UniProt P14416), Oc1ccc(-c2ccc(CNCCc3c[nH]c4ccccc34)o2)cc1 : 757

Observed Ki, D(2) dopamine receptor (Homo sapiens, UniProt P14416), O=C1CC(c2c[nH]c3ccc(F)cc23)C(=O)N1CCCCN1CCC(c2c[nH]c3ccccc23)CC1 (stereo not given) : 190

Observed Ki, D(2) dopamine receptor (Homo sapiens, UniProt P14416), CCOc1ccccc1N1CCN(CCCCc2cc(-c3ccccc3)no2)CC1 : 341

Observed Ki, D(2) dopamine receptor (Homo sapiens, UniProt P14416), COc1ccccc1N1CCN(CCCCNC(=O)c2sc3nc(OC)c(Cl)c(C)c3c2N)CC1 : 6.3

Observed Ki, D(2) dopamine receptor (Homo sapiens, UniProt P14416), O=S(=O)(NC1CCN(CCOc2ccccc2)C1)c1ccc(Cl)s1 (stereo not given) : 318

Observed Ki, D(2) dopamine receptor (Homo sapiens, UniProt P14416), CCCN1CCO[C@@H]2c3cc(C(=O)NC)ccc3CC[C@H]21 : 7940

Observed Ki, D(2) dopamine receptor (Homo sapiens, UniProt P14416), CCC1(CC)CC(OCCCN2CCN(c3cccc(Cl)c3Cl)CC2)(c2ccccn2)CCO1 (stereo not given) : 122

Observed Ki, D(2) dopamine receptor (Homo sapiens, UniProt P14416), COc1ccccc1C1CC1CNCC[C@H]1CC[C@H](NC(=O)c2ccccc2)CC1 (stereo not given in full) : 1040

Observed Ki, D(2) dopamine receptor (Homo sapiens, UniProt P14416), O=C(NCCCCN1CCO[C@@H]2c3cc(O)ccc3OC[C@@H]21)c1cc2ccccc2[nH]1 (relative stereo) : 9420

Observed Ki, D(2) dopamine receptor (Homo sapiens, UniProt P14416), O=C(CCCCCN1CCN(c2ccccc2-c2ccccc2)CC1)NCc1ccccc1 : 503

Observed Ki, D(2) dopamine receptor (Homo sapiens, UniProt P14416), COc1ccc2[nH]cc(C3CC(=O)N(CCCCN4CCC(c5c[nH]c6ccc(F)cc56)CC4)C3=O)c2c1 (stereo not given) : 62

Observed Ki, D(2) dopamine receptor (Homo sapiens, UniProt P14416), CCC(Oc1cccc(Cl)c1Cl)c1nc(N)nc(N2CCN(C)CC2)n1 (racemic) : 421

Observed Ki, D(2) dopamine receptor (Homo sapiens, UniProt P14416), CN(c1ncccn1)[C@H]1CC[C@H](CCN2CCN(c3ccccc3)CC2)CC1 : 4.8
